target: Recombinant soluble 60-mer human BAFF (His-HuBAFF 134-285) (human, UniProt Q9Y275 134-285); experiment: cell-based or functional assay
experimentalEndpoint: Soluble 60-mer huBAFF (4 pM) Neutralization IC50
Respond with the bare value in pM.

## Task // returns reported Soluble 60-mer huBAFF (4 pM) Neutralization IC50 for input 436H6A9 (antibody, V domains shown) VH: QLQQSGPELVKPGASVKISCKASGYTFTDNFINWVKQRPGQGLEWIGWISPGSGNTKNNEKFKGKATVTVDTSSSTAYMQLSSLTSEDSAVYFCARGIIYYYDGTYPYALDYWGQGTSVTVSS VL: DIVLTQSPASLGVSLGQRATISCRATKGVTKSGYSYIHWYQQKPGQPPKLLIYLASNLQSGVPARFSGSGSGTDFTLNIHPVEEEDAATYYCQHSRELPLTFGAGTKLELK
## Result 10

## Task // repeat for 323E9D1 (antibody, V domains shown) VH: QVTLKESGPGILQPSQTLSLTCSFSGFSMRTFGMGVGWIRQPSGKGLEWLAHIWWNDEKYYNPDLKSRLTVSKDSSKNQVFLTIANVDTSDTAPYYCTRVGPSISTIAEGFPYWGQGTLVTVSA VL: DIVMTQSQKFVSTRVGDRVSITCKASQNVGAAVVWYQQKSGQPPKLLIRSASNRYIGVPDRFTGSGSGTDFTLTVSDVQSGDLADYFCQQYSNYPLTFGAGTKLELT and report
## Result 6

## Task 319B8A12 (antibody, V domains shown) VH: KVTLKESGPGILQPSQTLSLTCSFSGFSLRTFGMGVGWIRQPSGKGLEWLAHIWWNDEKYYNPDLKSRLTVSKDSSKNQVFLTIANVDTSDTAPYYCTRVGPSISTVAEGFPYWGQGTLVTVSA VL: DIVMTQSQKFVSTRVGDRVSITCKASQNVGAAVVWYQQKSGQPPKLLIRSASNRYIGVPDRFTGSGSGTDFTLTVSDVQSGDLADYFCQQYSNYPLTFGAGTKLELTR ?
## Result 8

## Task Another: 431G5A3 (antibody, V domains shown) VH: QLQQSGPELVKPGASVKLSCKASGYTFTDYSIHWVKQSPGQGLEWIGWIYPGSDNTKYNDKFKGKASMTADKSSRTVYMHLSSLTSEESAVYFCARDYRRYYAMDYWGQGTSVTVSS VL: KIVLTQSSASLAVSLGQRATISCRASESVDRYGNSLMHWYQQKPGQPPKLLIYIASNLESGVPARFSGSGSRTDFTLTIDPVEADDAATYYCQQNNEDPRTFGGGTKLEIK
## Result 21
